Reported growth inhibition values for a set of compounds
- ASSAY COMMENT: NCI Yeast Anticancer Drug Screen. Data for the sgs1 mgt1 strain (AID 161);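 note: 0% = growth of cultures given vehicle only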
- EXPERIMENTAL CONDITIONS: S. cerevisiae sgs1 mgt1 strain, at 50.0 µM (retest, dose inferred, filed as 5.0), hits give high values
This is part of a sample that, as a whole, favours compounds with a hit. Of some 79,000 tested, about 15% had one in any assay. The source made the active and inactive calls. Cut-off read from the data, not from the text of the source: active = growth inhibition above about 70%; inactive = the rest.

Here is how some compounds turned out for growth inhibition.
- CCC[CH2][Sn]([CH2]CCC)([O]C(=O)CCC(C)=O)[O]C(=O)CCC(C)=O: 99% (active)
- COc1cc2c(c3c[n+](C)c4c5cc6c(cc5ccc4c13)OCO6)OCO2: 98% (active)
- Cc1cc(OC(=O)N(CCCl)CCCl)c(C(C)C)cc1N=O: 96% (active)
- O=C(Oc1ccc(S(=O)(=O)F)cc1F)c1ccccc1Cl: 99% (active)
- CC(=N\O)/C(C)=N/O.CC(=N\O)/C(C)=N/O.CC(=N\O)/C(C)=N/O.CC(=N\O)/C(C)=N/O.[CH3-].[CH3-].[Co].[Co]: 18% (inactive)

Look up growth inhibition: CCN(CC)CC(=O)c1cc2ccccc2c2ccccc12
97% (active)

Now give it for O=C(O)C(Br)C(Br)C(=O)O.[Ag] (centres undefined) too.
100% (active)

Proceed to COC1CCC(OC2CC(C3(C)CCC4(CC(O)C(C)C(C(C)/C=C(\C)C(=O)C(C)CC(C)C(=O)O)O4)O3)OC3(OC(C4OC(O)(CO)C(C)CC4C)CC3C)C2C)OC1C (centres undefined)
83% (active)

Also check CCOC(=O)CNC(=O)C1C2c3ccccc3C(c3ccccc32)C1C(=O)O (centres undefined)
39% (inactive)

----------
- ASSAY COMMENT: NCI Yeast Anticancer Drug Screen. Data for the rad50 strain (AID 155);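 note: 0% = growth of vehicle-only cultures of the same strain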
- EXPERIMENTAL CONDITIONS: S. cerevisiae rad50 strain growth inhibition; at 50.0 µM; hits give high values
The panel holds about 79,000 compounds, 15% with a hit somewhere; the sample as a whole holds those more often. The source made the active and inactive calls. Cut-off read from the data, not from the text of the source: active = growth inhibition above about 70%; inactive = the rest.
ASSAY READOUT: growth inhibition

- COCCCCCC(=O)CP(=O)(OC)OC: -7.15% (inactive)
- COc1cccc(C2(C#N)CCN(C)CC2)c1: 28.1% (inactive)
- O=C(O)C1C(C(=O)O)C2(Cl)C(Cl)=C(Cl)C1(Cl)C2(Cl)Cl.[Cd] (configuration not stated): 61.4% (inactive)
- COC1=CC(=O)OC(CCc2ccccc2)C1 (configuration not stated): -2.7% (inactive)
- OC(c1ccccc1)C(NC1CCCCC1)c1ccccc1 (configuration not stated): -4.5% (inactive)
- CCOP(=O)(OCC)C(O)c1ccccc1Cl (configuration not stated): 38.4% (inactive)

// switching to the query compound
Request the reported growth inhibition associated with CCCCCCCC[As](=O)(O)CCCCCCCC
-2.95% (inactive)

----------
- ASSAY COMMENT: NCI Yeast Anticancer Drug Screen. Data for the mlh1 rad18 strain (AID 175)
- EXPERIMENTAL CONDITIONS: S. cerevisiae mlh1 rad18 strain growth inhibition; at 50.0 µM; hits give high values
Compounds without any hit were thinned out: in the full panel of roughly 79,000, 15% have a hit.
Some compounds, each annotated with its measured growth inhibition.
Record the value in %, omitting the unit from your answer.

Consider the reported growth inhibition for these compounds:
• COc1ccc(N2CC=C(c3ccccc3)OP2(=O)N2CC2)cc1 (stereo not drawn) = -7.7
• CCN(CCCl)c1cc(C(N)=O)c([N+](=O)[O-])cc1[N+](=O)[O-] = -19.6
• COC(=O)Nc1nc2ccccc2[nH]1 = 7.15
• CC(C)(C)C1COP(=S)(C(C)(C)C)OC1 (stereo not drawn) = -5.15
• Cc1ccc(OP(Oc2ccc(C)cc2)Oc2ccc(C)cc2)cc1 = 31.5

Returns the measured growth inhibition for the input compound. Input: O=C(Nc1ccccc1)C(Cl)(Cl)Cl
19.8

# repeat for O=C(CF)NCCCl
1.45

Same for O=C(OCCl)c1ccccc1
15.7

Same question, NC(=O)C(F)(F)Cl this time
-19.2

Moving on to the next compound: O=C1NC(=O)C(CC(Br)CBr)(c2ccccc2)C(=O)N1 (stereo not drawn)
11.2

Reference source for all entries: PubChem BioAssay (NCI)
